experiment: Dynamic light-scattering measurement of hydrodynamic radius; type: physicochemical; conditions: DLS, 100 μM peptide + 1 μM bDNA, 1 h incubation, 25 °C
parameter-measured: change of hydrodynamic radii of the peptide in the presence of bDNAs

substance	result
Ac-WWWGGHHHH-Am [W3H4]	moderate increase
Ac-WWWGGGRRR-Am [W3R3]	moderate increase
Ac-WWWWGGHHHH-Am [W4H4]	increased significantly
Ac-WWWWGGRRRR-Am [W4R4]	increased significantly
